Target: Ribonuclease H1 (Homo sapiens)
Sequence (O60930 whole entry): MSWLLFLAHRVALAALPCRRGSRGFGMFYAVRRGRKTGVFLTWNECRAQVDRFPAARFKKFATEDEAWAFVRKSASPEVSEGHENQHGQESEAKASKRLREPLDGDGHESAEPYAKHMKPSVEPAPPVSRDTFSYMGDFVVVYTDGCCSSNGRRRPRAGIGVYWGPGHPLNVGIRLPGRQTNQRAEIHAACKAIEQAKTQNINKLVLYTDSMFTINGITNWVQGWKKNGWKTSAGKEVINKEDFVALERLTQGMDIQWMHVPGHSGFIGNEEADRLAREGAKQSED
Measured quantity: pIC50
Remember the convention: pIC50 equals -log10 of concentration in molar.

// query So what's the measured pIC50 for this one? O=c1[nH]c2ccccc2c(=O)n1O
// result 5.23
